Measured values drawn from patent US20240343706A1 for this set.

target: CRBN-DDB1 protein complex (Homo sapiens); assay: Fluorescence polarization (FP) assay, displacement of Cy5-labelled thalidomide; settings: 25 nM CRBN-DDB1, 5 nM Cy5-labelled thalidomide, read-out: CRBN binding Ki
Sequence (Q96SW2 whole entry): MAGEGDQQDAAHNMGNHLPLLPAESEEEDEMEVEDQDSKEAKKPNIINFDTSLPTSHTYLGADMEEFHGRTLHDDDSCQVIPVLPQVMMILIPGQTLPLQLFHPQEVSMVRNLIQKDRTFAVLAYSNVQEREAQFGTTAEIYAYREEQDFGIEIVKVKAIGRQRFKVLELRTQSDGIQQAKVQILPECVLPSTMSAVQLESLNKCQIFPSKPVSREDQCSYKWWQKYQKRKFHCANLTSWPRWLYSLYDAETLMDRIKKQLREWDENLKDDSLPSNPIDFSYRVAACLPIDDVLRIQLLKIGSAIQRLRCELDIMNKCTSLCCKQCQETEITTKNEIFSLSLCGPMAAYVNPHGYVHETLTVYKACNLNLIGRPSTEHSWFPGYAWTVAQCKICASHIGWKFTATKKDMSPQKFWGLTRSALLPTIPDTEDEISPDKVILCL
Sequence (Q16531 whole entry partner): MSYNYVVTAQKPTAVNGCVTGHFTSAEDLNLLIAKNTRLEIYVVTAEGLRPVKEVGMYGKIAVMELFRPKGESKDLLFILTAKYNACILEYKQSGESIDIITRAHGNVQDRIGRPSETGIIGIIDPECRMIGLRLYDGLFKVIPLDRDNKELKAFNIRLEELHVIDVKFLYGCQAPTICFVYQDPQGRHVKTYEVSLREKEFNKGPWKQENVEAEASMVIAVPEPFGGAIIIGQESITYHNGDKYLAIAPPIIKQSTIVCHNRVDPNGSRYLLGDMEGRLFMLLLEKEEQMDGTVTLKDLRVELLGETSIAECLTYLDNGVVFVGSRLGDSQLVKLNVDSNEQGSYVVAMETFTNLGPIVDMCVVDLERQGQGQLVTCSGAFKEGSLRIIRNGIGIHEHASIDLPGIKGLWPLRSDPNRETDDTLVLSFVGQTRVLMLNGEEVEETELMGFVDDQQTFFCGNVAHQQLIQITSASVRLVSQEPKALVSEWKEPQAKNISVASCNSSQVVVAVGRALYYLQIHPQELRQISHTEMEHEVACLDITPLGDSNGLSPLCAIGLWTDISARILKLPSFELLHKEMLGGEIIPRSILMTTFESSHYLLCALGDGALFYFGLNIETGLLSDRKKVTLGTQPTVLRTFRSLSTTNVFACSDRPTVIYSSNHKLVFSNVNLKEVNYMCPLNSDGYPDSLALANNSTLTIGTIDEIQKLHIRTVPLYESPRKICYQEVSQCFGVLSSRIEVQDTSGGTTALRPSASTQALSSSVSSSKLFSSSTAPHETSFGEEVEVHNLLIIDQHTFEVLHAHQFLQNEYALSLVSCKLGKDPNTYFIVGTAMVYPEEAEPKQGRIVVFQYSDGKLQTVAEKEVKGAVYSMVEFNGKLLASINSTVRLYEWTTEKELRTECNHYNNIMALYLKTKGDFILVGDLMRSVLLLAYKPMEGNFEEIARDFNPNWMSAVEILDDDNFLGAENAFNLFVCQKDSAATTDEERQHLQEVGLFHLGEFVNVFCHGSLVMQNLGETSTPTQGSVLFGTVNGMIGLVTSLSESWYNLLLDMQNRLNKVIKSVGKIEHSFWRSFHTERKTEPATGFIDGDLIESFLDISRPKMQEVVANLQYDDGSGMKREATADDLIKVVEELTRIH
measurement_label: Ki

The cases that follow already have their Ki on record.
{"columns": ["compound", "tested_system", "Ki"],
 "data": [
  ["COc1cc(C(=O)NC2CCC(=O)NC2=O)c2nc(C)[nH]c2c1 (stereo not drawn)", "CRBN-DDB1 protein complex (Homo sapiens)", "< 1 µM"],
  ["O=C1CCC(NC(=O)c2cccc3[nH]nnc23)C(=O)N1 (stereo not drawn)", "CRBN-DDB1 protein complex (Homo sapiens)", "1 to 10 µM"]
]}

Prompt: State the recorded Ki for this entry: CC(C)Cc1nc2c(C(=O)NC3CCC(=O)NC3=O)cccc2[nH]1 (stereo not drawn)
Completion: 1 to 10 µM
